biological target: Neuronal acetylcholine receptor subunit alpha-6 (Rattus norvegicus); assay: Antagonist activity at alpha6 nAChR in rat striatum assessed as inhibition of nicotine-induced [3H]dopamine release relative to nicotine; type: functional, tissue-based
Recorded Imax values for a group of molecules are listed next.
assay endpoint: Imax (%)

>>> recorded_number("CC1=CCCN(CCCC#Cc2cc(C#CCCCN3CCC=C(C)C3)cc(C#CCCCN3CCC=C(C)C3)c2)C1")
67
>>> recorded_number("CC1=CCCN(CCCCCCCCCCCCN2CCC=C(C)C2)C1")
60
>>> recorded_number("OCCCC1=CCCN(CCCCCc2cc(CCCCCN3CCC=C(CCCO)C3)c(CCCCCN3CCC=C(CCCO)C3)cc2CCCCCN2CCC=C(CCCO)C2)C1")
64
>>> recorded_number("c1ccc2c(c1)CCN(CCCCCc1cc(CCCCCN3CCc4ccccc4C3)c(CCCCCN3CCc4ccccc4C3)cc1CCCCCN1CCc3ccccc3C1)C2")
64
>>> recorded_number("CC1=CCCN(CCCCCCCCCCN2CCC=C(C)C2)C1")
65
>>> recorded_number("c1ccc2c(c1)CCN(CCCCCCCCCCN1CCc3ccccc3C1)C2")
74
>>> recorded_number("c1ccc2c(c1)CCN(CCCCCCCCCCCCN1CCc3ccccc3C1)C2")
76
>>> recorded_number("Cc1ccc[n+](CCCCCCCCCC[n+]2cccc(C)c2)c1")
63
>>> recorded_number("c1ccc2c[n+](CCCCCCCCCC[n+]3ccc4ccccc4c3)ccc2c1")
95
>>> recorded_number("c1ccc2c(c1)CCN(CCCCCc1cc(CCCCCN3CCc4ccccc4C3)cc(CCCCCN3CCc4ccccc4C3)c1)C2")
58
>>> recorded_number("c1ccc2c[n+](CCCCCc3cc(CCCCC[n+]4ccc5ccccc5c4)c(CCCCC[n+]4ccc5ccccc5c4)cc3CCCCC[n+]3ccc4ccccc4c3)ccc2c1")
52
>>> recorded_number("c1ccc2c[n+](CCCCCCCCCCCC[n+]3ccc4ccccc4c3)ccc2c1")
53
>>> recorded_number("Cc1ccc[n+](CCCCCCCCCCCC[n+]2cccc(C)c2)c1")
63
>>> recorded_number("Cc1ccc[n+](CCCC#Cc2cc(C#CCCC[n+]3cccc(C)c3)cc(C#CCCC[n+]3cccc(C)c3)c2)c1")
67
>>> recorded_number("OCCCc1ccc[n+](CCCCCc2cc(CCCCC[n+]3cccc(CCCO)c3)c(CCCCC[n+]3cccc(CCCO)c3)cc2CCCCC[n+]2cccc(CCCO)c2)c1")
63
>>> recorded_number("C(#Cc1ccccc1C#CCCC[n+]1ccc2ccccc2c1)CCC[n+]1ccc2ccccc2c1")
59

====

molecular target: Neuronal acetylcholine receptor subunit alpha-6 (Rattus norvegicus); assay: Antagonist activity at alpha6 nAChR in rat striatum assessed as inhibition of nicotine-induced [3H]dopamine release
pIC50: −log10 of the molar value.
Recorded pIC50 by entry
assay endpoint: pIC50

>>> recorded_number("CC1=CCCN(CCCCCCCCCCN2CCC=C(C)C2)C1")
7.43
>>> recorded_number("OCCCC1=CCCN(CCCCCc2cc(CCCCCN3CCC=C(CCCO)C3)c(CCCCCN3CCC=C(CCCO)C3)cc2CCCCCN2CCC=C(CCCO)C2)C1")
7.52
>>> recorded_number("Cc1ccc[n+](CCCCCCCCCCCC[n+]2cccc(C)c2)c1")
8.70
>>> recorded_number("c1ccc2c[n+](CCCCCCCCCC[n+]3ccc4ccccc4c3)ccc2c1")
7.15

====

Measured log10(IC50) accompanies every entry in the list below.
target: Neuronal acetylcholine receptor subunit alpha-6 (Rattus norvegicus); experiment: Antagonist activity at alpha6 nAChR in rat striatum assessed as inhibition of nicotine-induced [3H]dopamine release
assay endpoint: log10(IC50) (log10 of the value in nM)

>>> recorded_number("OCCCc1ccc[n+](CCCCCc2cc(CCCCC[n+]3cccc(CCCO)c3)c(CCCCC[n+]3cccc(CCCO)c3)cc2CCCCC[n+]2cccc(CCCO)c2)c1")
0.48
>>> recorded_number("c1ccc2c(c1)CCN(CCCCCCCCCCN1CCc3ccccc3C1)C2")
1.00
>>> recorded_number("C(#Cc1ccccc1C#CCCC[n+]1ccc2ccccc2c1)CCC[n+]1ccc2ccccc2c1")
1.80
>>> recorded_number("Cc1ccc[n+](CCCC#Cc2cc(C#CCCC[n+]3cccc(C)c3)cc(C#CCCC[n+]3cccc(C)c3)c2)c1")
-0.70
>>> recorded_number("CC1=CCCN(CCCCCCCCCCCCN2CCC=C(C)C2)C1")
-0.02
>>> recorded_number("CC1=CCCN(CCCC#Cc2cc(C#CCCCN3CCC=C(C)C3)cc(C#CCCCN3CCC=C(C)C3)c2)C1")
0.51
>>> recorded_number("Cc1ccc[n+](CCCCCCCCCC[n+]2cccc(C)c2)c1")
2.26
>>> recorded_number("c1ccc2c(c1)CCN(CCCCCc1cc(CCCCCN3CCc4ccccc4C3)c(CCCCCN3CCc4ccccc4C3)cc1CCCCCN1CCc3ccccc3C1)C2")
2.31

====

As shown below, each of these molecules has a reported IC50 value.
target: Neuronal acetylcholine receptor subunit alpha-6 (Rattus norvegicus); test: Antagonist activity at alpha6 nAChR in rat striatum assessed as inhibition of nicotine-induced [3H]dopamine release
assay endpoint: IC50

>>> result("c1ccc2c(c1)CCN(CCCCCCCCCCCCN1CCc3ccccc3C1)C2")
"0.00859 µM"
>>> result("c1ccc2c[n+](CCCCCCCCCCCC[n+]3ccc4ccccc4c3)ccc2c1")
"0.04 µM"
>>> result("c1ccc2c(c1)CCN(CCCCCc1cc(CCCCCN3CCc4ccccc4C3)cc(CCCCCN3CCc4ccccc4C3)c1)C2")
"0.00035 µM"
>>> result("c1ccc2c[n+](CCCCCc3cc(CCCCC[n+]4ccc5ccccc5c4)c(CCCCC[n+]4ccc5ccccc5c4)cc3CCCCC[n+]3ccc4ccccc4c3)ccc2c1")
"0.056 µM"

====

Measured inhibition by item
biological target: Neuronal acetylcholine receptor subunit alpha-6 (Rattus norvegicus) (UniProt P43143); experiment: Antagonist activity at alpha6 nAChR in rat striatum assessed as inhibition of nicotine-induced [3H]dopamine release at 100 nM relative to control; type: functional, tissue-based
Sequence (P43143 whole entry): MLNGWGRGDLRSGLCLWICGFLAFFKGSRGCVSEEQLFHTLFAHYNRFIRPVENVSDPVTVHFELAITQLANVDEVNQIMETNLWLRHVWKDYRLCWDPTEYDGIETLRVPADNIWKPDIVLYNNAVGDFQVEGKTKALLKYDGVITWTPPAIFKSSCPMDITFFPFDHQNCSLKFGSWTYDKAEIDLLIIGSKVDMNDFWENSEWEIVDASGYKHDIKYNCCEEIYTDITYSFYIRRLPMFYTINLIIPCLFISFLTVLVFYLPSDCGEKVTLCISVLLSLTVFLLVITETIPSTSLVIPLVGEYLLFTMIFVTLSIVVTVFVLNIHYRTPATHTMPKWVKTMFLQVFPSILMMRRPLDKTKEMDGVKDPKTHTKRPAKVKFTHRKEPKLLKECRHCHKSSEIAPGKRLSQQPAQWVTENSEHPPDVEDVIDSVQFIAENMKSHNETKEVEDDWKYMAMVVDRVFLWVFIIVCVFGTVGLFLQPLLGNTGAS
assay endpoint: inhibition (%)

>>> recorded_number("CC1=CCCN(CCCC#Cc2cc(C#CCCCN3CCC=C(C)C3)cc(C#CCCCN3CCC=C(C)C3)c2)C1")
83
>>> recorded_number("c1ccc2c(c1)CCN(CCCCCc1cc(CCCCCN3CCc4ccccc4C3)cc(CCCCCN3CCc4ccccc4C3)c1)C2")
58
>>> recorded_number("Cc1ccc[n+](CCCC#Cc2cc(C#CCCC[n+]3cccc(C)c3)cc(C#CCCC[n+]3cccc(C)c3)c2)c1")
40
>>> recorded_number("c1ccc2c[n+](CCCCCc3cc(CCCCC[n+]4ccc5ccccc5c4)cc(CCCCC[n+]4ccc5ccccc5c4)c3)ccc2c1")
28
>>> recorded_number("CC1=CCCN(CCCCCCCCCCCCN2CCC=C(C)C2)C1")
50
>>> recorded_number("OCCCC1=CCCN(CCCCCc2cc(CCCCCN3CCC=C(CCCO)C3)c(CCCCCN3CCC=C(CCCO)C3)cc2CCCCCN2CCC=C(CCCO)C2)C1")
40
>>> recorded_number("c1ccc2c(c1)CCN(CCCCCc1cc(CCCCCN3CCc4ccccc4C3)c(CCCCCN3CCc4ccccc4C3)cc1CCCCCN1CCc3ccccc3C1)C2")
84
>>> recorded_number("OCCCc1ccc[n+](CCCCCc2cc(CCCCC[n+]3cccc(CCCO)c3)c(CCCCC[n+]3cccc(CCCO)c3)cc2CCCCC[n+]2cccc(CCCO)c2)c1")
41
>>> recorded_number("CC1=CCCN(CCCCCCCCCCN2CCC=C(C)C2)C1")
36
>>> recorded_number("C(#Cc1ccccc1C#CCCCN1CCc2ccccc2C1)CCCN1CCc2ccccc2C1")
18
